Provide the reported Inhibition of each item.
target: CB1-receptor (UniProt P20272); assay: binding of the pyrazoline compounds to CB1-receptors (Pharmacological Methods, Part I); set-up: other: 10^−7 M; other: 10^−8 M; species or system human or rat; details: 10^−7 M
One number for each entry, in %.

Hi there! I need Inhibition for each item below, if you can.
1. C[C@H]1C(C(=O)NN2CC3CCCC3C2)=NN(c2ccc(Cl)cc2Cl)[C@H]1c1ccc(F)cc1.Cl (relative stereo)
2. C[C@H]1C(C(=O)NN2CCCCCC2)=NN(c2ccc(Cl)cc2Cl)[C@H]1c1ccc(Cl)cc1.Cl (relative stereo)
3. C[C@H]1C(C(=O)NC2CCCCCC2)=NN(c2ccc(Cl)cc2Cl)[C@H]1c1ccc(Br)cc1 (relative stereo)
4. C[C@H]1C(C(=O)NN2CCCCCC2)=NN(c2ccc(Cl)cc2Cl)[C@H]1c1ccc(F)cc1.Cl (stereo in doubt)
5. C[C@H]1C(C(=O)O)=NN(c2ccc(Cl)cc2Cl)[C@H]1c1cccs1 (racemic)

Result string:
1. 43.9
2. 80
3. 69.8
4. 65.3
5. 11

====

For each entry below, report its IC50 value.
molecular target: UniProtKB P20272; assay: binding of the pyrazoline compounds to CB1-receptors (Pharmacological Methods, Part I); design: IC50; species or system human or rat; conditions: radioligand [3H]-CP55940, read-out: IC50
One number for each entry, in nM.

>>> endpoint_result("C[C@H]1C(C(=O)NN2CCc3ccccc32)=NN(c2ccc(Cl)cc2Cl)[C@H]1c1ccc(Cl)cc1 (relative stereo)")
100
>>> endpoint_result("C[C@@H]1C(C(=O)NN2CCCCC2)=NN(c2ccc(Cl)cc2Cl)[C@H]1c1ccccc1 (relative stereo)")
70.8
>>> endpoint_result("C[C@H]1C(C(=O)NN2CCCCCC2)=NN(c2ccc(Cl)cc2Cl)[C@H]1c1ccc(Br)cc1.Cl (relative stereo) [Example 207, hydrochloride]")
71

We next turn to a different molecule, shown below.
Query string: Record request: IC50 value, item CCOC(=O)C1=NN(c2ccc(Cl)cc2Cl)[C@@H](c2ccc(Cl)cc2)[C@@H]1C(F)(F)F (relative stereo)
Result string: 182

====

target: CB1-receptor (UniProt P20272); experiment: binding of the pyrazoline compounds to CB1-receptors (Pharmacological Methods, Part I); set-up: other: 10^−7 M; other: 10^−8 M; species or system human or rat; conditions: 10^−7 M
assay endpoint: Inhibition
Output should be the measured figure followed by the unit it is expressed in.

>>> endpoint_result("CC1CCCCC1NC(=O)C1=NN(c2ccc(Cl)cc2Cl)[C@H](c2ccc(Cl)cc2)[C@@H]1C (relative stereo)")
"65.7%"

For each of the items listed, what is its Inhibition?
1. C[C@@H]1C(C(=O)NN2CCc3ccccc32)=NN(c2ccc(Cl)cc2Cl)[C@@H]1c1ccc(Br)cc1 (relative stereo)
2. C[C@@H]1C(C(=O)NN2CCCCC2)=NN(c2ccc(Cl)cc2Cl)[C@@H]1c1ccc(Br)cc1.Cl (relative stereo)
3. C[C@@H]1C(C(=O)NN2CCN(C3CCCC3)CC2)=NN(c2ccc(Cl)cc2Cl)[C@@H]1c1ccc(Cl)cc1.Cl (relative stereo)

Result string:
["79.3%", "62.6%", "32.6%"]

// batch mode: one Inhibition value per listed entry
1. COc1ccc([C@@H]2[C@H](C)C(C(=O)NN3CCCCC3)=NN2c2ccc(Cl)cc2Cl)cc1 (relative stereo)
2. C[C@@H]1C(C(=O)NC2CCCCCCC2)=NN(c2ccc(Cl)cc2Cl)[C@@H]1c1ccc(Cl)cc1 (relative stereo)
3. C[C@@H]1C(C(=O)O)=NN(c2ccc(Cl)cc2Cl)[C@H]1c1ccc(Br)cc1 (relative stereo)
4. C[C@H]1C(C(=O)O)=NN(c2ccc(Cl)cc2Cl)[C@H]1c1ccc(Br)cc1 (relative stereo)
5. CCOC(=O)C1=NN(c2ccc(Cl)cc2Cl)[C@@H](c2ccc(Cl)cc2)[C@@H]1C(F)(F)F (relative stereo)
6. C[C@@H]1C(C(=O)N[C@H]2CCCC[C@@H]2O)=NN(c2ccc(Cl)cc2Cl)[C@@H]1c1ccc(Cl)cc1 (single isomer, unassigned) [Example 129]

Result string:
["58.1%", "73.7%", "−11.2%", "17.3%", "93.5%", "72.3%"]

====

Provide the reported Inhibition of each item.
Biological target: CB1-receptor (UniProt P20272)
Experiment: binding of the pyrazoline compounds to CB1-receptors (Pharmacological Methods, Part I)
Parameters: other: 10^−7 M; other: 10^−8 M; species or system human or rat
Conditions: 10^−8 M, in %
Method: I. In-vitro Determination of Affinity to CB1/CB2-Receptors The in-vitro determination of the affinity of the inventive 4-substituted pyrazoline compounds to CB1/CB2-Rezeptors is carried out as described in the publication of Ruth A. Ross, Heather C. […] Binding affinity to CB1 receptor was evaluated according to a modification of the method described by Govaerts et al., Eur J Pharmac Sci 23, 233-243 (2004). […]
Counter-ions that a name gives are not always drawn.

Before answering, review these 10 worked examples.
>>> endpoint_result("C[C@H]1C(C(=O)NN2CCc3ccccc32)=NN(c2ccc(Cl)cc2Cl)[C@H]1c1ccc(F)cc1 (relative stereo)")
5.4
>>> endpoint_result("C[C@@H]1C(C(=O)NN2CCCCCC2)=NN(c2ccc(Cl)cc2Cl)[C@@H]1c1ccc(F)cc1 (stereo in doubt)")
28.7
>>> endpoint_result("C[C@H]1C(C(=O)NN2CCCCCC2)=NN(c2ccc(Cl)cc2Cl)[C@H]1c1ccc(Br)cc1.Cl (relative stereo)")
48.3
>>> endpoint_result("CC1C(C(=O)O)=NN(c2ccc(Cl)cc2Cl)C1c1ccccc1 (centres unmarked)")
"−10.1"
>>> endpoint_result("C[C@@H]1C(C(=O)NN2CCCCC2)=NN(c2ccc(Cl)cc2Cl)[C@@H]1c1ccc(Cl)cc1 [Example 420]")
2.8
>>> endpoint_result("C[C@H]1C(C(=S)NN2CCCCC2)=NN(c2ccc(Cl)cc2Cl)[C@H]1c1ccc(Cl)cc1 (relative stereo) [Example 379, hydrochloride]")
27.0
>>> endpoint_result("C[C@@H]1C(C(=O)NN2CCCCC2)=NN(c2ccc(Cl)cc2Cl)[C@@H]1c1ccc(Br)cc1.Cl (relative stereo)")
19.9
>>> endpoint_result("COc1ccc([C@@H]2[C@H](C)C(C(=O)N[C@H]3CCCC[C@@H]3O)=NN2c2ccc(Cl)cc2Cl)cc1 (mixture of isomers) [Example 282]")
9.6
>>> endpoint_result("C[C@@H]1C(C(=O)NN2C(=O)c3cccc4cccc(c34)C2=O)=NN(c2ccc(Cl)cc2Cl)[C@@H]1c1ccc(Cl)cc1 (relative stereo)")
"−0.4"
>>> endpoint_result("C[C@H]1C(C(=O)NN2CCCCCC2)=NN(c2ccc(Cl)cc2Cl)[C@H]1c1ccc(F)cc1.Cl (stereo in doubt)")
15.3

# map each compound to its Inhibition
1. COc1ccc([C@@H]2[C@H](C)C(C(=O)NN3CCc4ccccc43)=NN2c2ccc(Cl)cc2Cl)cc1 (relative stereo)
2. CC1CCCC(NC(=O)C2=NN(c3ccc(Cl)cc3Cl)[C@H](c3ccc(Cl)cc3)[C@@H]2C)C1 (relative stereo)
3. CC[C@@H]1C(C(=O)NN2CCCCC2)=NN(c2ccc(Cl)cc2Cl)[C@@H]1c1ccc(Br)cc1.Cl (relative stereo)

Result string:
[14.7, 33.1, 28.4]

====

biological target: CB1-receptor (UniProt P20272); assay: binding of the pyrazoline compounds to CB1-receptors (Pharmacological Methods, Part I); design: other: 10^−7 M; other: 10^−8 M; species or system human or rat; conditions: 10^−7 M
assay endpoint: Inhibition (%)
Give bare numbers, in %.

// known answers, use as guide
>>> endpoint_result("CCOC(=O)C1=NN(c2ccc(Cl)cc2Cl)[C@@H](c2ccccc2)[C@@H]1C (relative stereo)")
31.2
>>> endpoint_result("COC[C@@H]1CCCN1NC(=O)C1=NN(c2ccc(Cl)cc2Cl)[C@H](c2ccc(Cl)cc2)[C@@H]1C.Cl (mixture of isomers)")
43.9
>>> endpoint_result("COc1ccc([C@H]2[C@@H](C)C(C(=O)O)=NN2c2ccc(Cl)cc2Cl)cc1 (racemic)")
"−6.9"

Query string: What reported Inhibition corresponds to COc1ccc([C@H]2[C@@H](C)C(C(=O)NC3CCCCCC3)=NN2c2ccc(Cl)cc2Cl)cc1 (relative stereo) on CB1-receptor (UniProt P20272)?
Result string: 69.1

====

Hi there, I'd appreciate the recorded Inhibition for every entry that follows.
biological target: UniProt P20272; test: binding of the pyrazoline compounds to CB1-receptors (Pharmacological Methods, Part I); set-up: other: 10^−7 M; other: 10^−8 M; species or system human or rat; settings: 10^−8 M, in %

>>> endpoint_result("C[C@H]1C(C(=O)O)=NN(c2ccc(Cl)cc2Cl)[C@H]1c1ccc(F)cc1 (racemic) [Example 221]")
"−2.2"
>>> endpoint_result("C[C@@H]1C(C(=O)NN2CCCCC2)=NN(c2ccc(Cl)cc2Cl)[C@H]1c1ccc(O)cc1 (relative stereo) [Example 344]")
"−27.3"
>>> endpoint_result("C[C@@H]1C(C(=O)NC2CCCCCCC2)=NN(c2ccc(Cl)cc2Cl)[C@@H]1c1ccc(Cl)cc1 (relative stereo) [Example 119]")
19.5
>>> endpoint_result("C[C@@H]1C(C(=O)NN2CCOCC2)=NN(c2ccc(Cl)cc2Cl)[C@@H]1c1ccc(Cl)cc1 (relative stereo) [Example 101]")
27.7

For each entry beneath this line, provide reported Inhibition.
1. COc1ccc([C@H]2[C@@H](C)C(C(=O)NC3CCCCCC3)=NN2c2ccc(Cl)cc2Cl)cc1 (relative stereo) [Example 275]
2. C[C@@H]1C(C(=O)N[C@@H]2CCCC[C@H]2OCc2ccccc2)=NN(c2ccc(Cl)cc2Cl)[C@@H]1c1ccc(Cl)cc1 (mixture of isomers) [Example 437]
3. C[C@H]1C(C(=O)O)=NN(c2ccc(Cl)cc2Cl)[C@H]1c1ccc(Cl)cc1 (racemic) [Example 19]
4. C[C@@H]1C(C(=O)O)=NN(c2ccc(Cl)cc2Cl)[C@H]1c1ccc(Br)cc1 (relative stereo) [Example 200]
5. C[C@H]1C(C(=O)NN2CC3CCCC3C2)=NN(c2ccc(Cl)cc2Cl)[C@H]1c1ccc(Cl)cc1 (relative stereo) [Example 13]

Result string:
26.1
14.7
−0.7
3
27.6

Query string: For the molecule C[C@@H]1C(C(=O)NCC2CCCCC2)=NN(c2ccc(Cl)cc2Cl)[C@@H]1c1ccc(Cl)cc1 (relative stereo) [Example 114] , what Inhibition is on record?
Result string: −13
